Data provenance is patent US20100261777.

target or test system: metallo-beta-lactamase (class B) 5/B/6 (Bacillus cereus)
Sequence: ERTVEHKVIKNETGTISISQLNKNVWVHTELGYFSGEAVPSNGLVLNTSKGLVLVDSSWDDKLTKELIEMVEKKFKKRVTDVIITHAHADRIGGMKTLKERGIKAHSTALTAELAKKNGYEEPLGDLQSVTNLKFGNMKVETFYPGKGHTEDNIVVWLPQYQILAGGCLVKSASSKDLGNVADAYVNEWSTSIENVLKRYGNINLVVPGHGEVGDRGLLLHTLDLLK
assay name: inhibition
experimental setup: noncompetitive; KI' 76.5 nM; MOPS pH 7.0, 30 C
endpoint label: pKi
Note on pKi: it is the negative log10 of concentration, concentration in mol/L.

## Task # lookup: pKi of ATGATCCGGTGCTGT (double strand) [ds 15-mer]
## Result 6.99
